System: HL-60
Experiment: NCI tumour cell line growth inhibition, 48 h
Active and inactive are the calls of the source. Rule as the data show it: active = GI50 up to about 1.1 µM and inactive = higher.
Give your call using only these classes: true (1) for active, false (0) for inactive

Here's what some known entries look like.
- CCN(CCCl)CCNc1c2ccccc2nc2ccc(OC)cc12: true (1)
- Nn1c(-c2ccccc2)nn(C(=O)c2ccccc2)c1=O: false (0)
- CC(C)=CCc1c(O)ccc2ccc(=O)oc12 [OSTHENOL]: false (0)

Challenge: I would be grateful if you could indicate the recorded call for "Oc1cc(Cc2ccccc2)c(Cc2ccccc2)cc1O" .
Response given: false (0)

Challenge: Same lookup for Cc1cc(Br)cc(C)c1NC(=O)C(=O)C(C(=O)c1ccc(Cl)c(Cl)c1)C1OC(=O)c2ccccc21 (stereo unspecified) , please.
Response given: false (0)

Source of measurements: ChEMBL document CHEMBL1201862
